For each record, write down the corresponding concentration at 4 h.
- assay_text: In vivo rat tissue biodistribution / neuroPK study, 4 h intravenous constant infusion
- Parameters: species or system Sprague-Dawley rats
- protocol_conditions: Sprague-Dawley, rat, plasma, intravenous, 20 mg/kg, rat, 4 h iv constant infusion 20 mg/kg; read-out: Total drug concentration in plasma, Ctot,plasma
Unit µM implied. Number only.

Query: // returns reported concentration at 4 h for input [O-][S@@+](Cc1cncs1)C(c1ccccc1)c1ccccc1 [S-CE-123]
Result: 3.35

Query: Any idea what concentration at 4 h was measured for NC(=O)C[S@@+]([O-])C(c1ccccc1)c1ccccc1 [R-modafinil, reference compound] ?
Result: 3.69
